Documented AUC % to SRF813-hIgG1 across a set of binders
testedSystem: T1, cynomolgus monkey PVRIG on FlpinCHO-cyno PVRIG cells (cynomolgus monkey, UniProt A0A2K5WVV8 41-322)
T1 construct: whole, on cells
T1 sequence: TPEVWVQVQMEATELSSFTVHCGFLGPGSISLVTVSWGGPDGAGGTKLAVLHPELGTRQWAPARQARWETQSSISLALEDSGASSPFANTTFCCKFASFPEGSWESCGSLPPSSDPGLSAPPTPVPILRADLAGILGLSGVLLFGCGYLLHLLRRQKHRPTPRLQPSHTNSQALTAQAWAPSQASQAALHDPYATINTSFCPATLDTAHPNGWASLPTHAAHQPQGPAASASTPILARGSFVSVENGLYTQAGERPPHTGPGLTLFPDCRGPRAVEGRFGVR
procedureSummary: FACS, FlpinCHO-cyno PVRIG cells

{"binder": "PVRIG-A105-H3 (Fc fusion, humanized variant of PVRIG-A105; also called A105.VH3; not shown: constant part not restated for the humanized forms; parents are VHH-hinge-CH2-CH3 of human IgG1; detected by anti-human) EVQLVESGGGLVQPGGSLRLSCAASGRTFDRHTMTWFRQAPGKEREFVATASRIPGDTYYVDSVKGRFTISRDNAKNSVYLQMNSLRAEDTAVYYCAATSAYCSEVDCYEKGSWYDNWGQGTMVTVSS", "AUC % to SRF813-hIgG1 (%)": 107}
{"binder": "PVRIG-A118-H6 (Fc fusion, humanized variant of PVRIG-A118; also called A118.VH6; not shown: constant part not restated for the humanized forms; parents are VHH-hinge-CH2-CH3 of human IgG1; detected by anti-human) EVQLVESGGGLVQPGGSLRLSCAASETYFDLYVMGWYRQAPGKDRELVATITYTGSIKIVDSVKGRFTISRGDAKNSLYLQMNSLRAEDTAVYYCNADPSGLGRKVYWGQGTMVTVSS", "AUC % to SRF813-hIgG1 (%)": 24.2}
{"binder": "PVRIG-A105-H4 (Fc fusion, humanized variant of PVRIG-A105; also called A105.VH4; not shown: constant part not restated for the humanized forms; parents are VHH-hinge-CH2-CH3 of human IgG1; detected by anti-human) EVQLVESGGGLVQPGGSLRLSCAASGRTFDRHTMTWFRQAPGKEREFVATASRIPGDTYYSHSVKGRFTISRDNAKNSLYLQMNSLRAEDTAVYYCAATSAYCSEVDCYEKGSWYDNWGQGTMVTVSS", "AUC % to SRF813-hIgG1 (%)": 99.6}
{"binder": "PVRIG-A50-H1e (Fc fusion, humanized variant of PVRIG-A50; also called VH1e; not shown: constant part not restated for the humanized forms; parents are VHH-hinge-CH2-CH3 of human IgG1; detected by anti-human) EVQLVESGGGLVQPGGSLRLSCAASGFTFSYYDMSWVRQAPGKGLEWVSTINSNAGRTSYVDSVKGRFTISRDNSKNTLYLQMNSLRAEDTAVYYCVEGDPHNFGLESLSLRDFGSWGQGTMVTVSS", "AUC % to SRF813-hIgG1 (%)": 53.2}
